The reported measurements were obtained from the RNAGym collection of RNA variant scans (doi:10.1021/acssynbio.7b00057).

B1: Pistol ribozyme (parent)
chain: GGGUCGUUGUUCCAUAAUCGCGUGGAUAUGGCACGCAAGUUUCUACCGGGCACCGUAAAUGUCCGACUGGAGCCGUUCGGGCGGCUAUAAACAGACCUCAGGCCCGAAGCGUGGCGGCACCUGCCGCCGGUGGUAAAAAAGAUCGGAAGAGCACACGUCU

Variants of: B1
protocol.text: aptazyme ON/OFF ratio, guanine; higher = stronger switching; co-transcriptional cleavage with and without guanine
measurement.name: aptazyme ON/OFF ratio

Query string: So what's the measured aptazyme ON/OFF ratio for this one? U7A G9U U11G C12G
Result string: 1.15

Query string: Which value of aptazyme ON/OFF ratio has been reported for U7C U8G G9C U11A C12G C13A in the records?
Result string: 1.1

Query string: Would you mind telling me what aptazyme ON/OFF ratio value was observed for U7A U8G U10G U11C C12G ?
Result string: 1.14

Query string: Would you kindly share the measured aptazyme ON/OFF ratio for U7A U8C G9A U10A U11A C12U ?
Result string: 1.25

Query string: Fill in: aptazyme ON/OFF ratio of U8G G9C U10C C12A C13G is ___
Result string: 1.06

Query string: Look up aptazyme ON/OFF ratio: U8G G9A U10A U11G C12U C13G
Result string: 1.25

Query string: Can you look up the measured aptazyme ON/OFF ratio of G9C U11G for me?
Result string: 2.2

Query string: For U7G G9C U10C C12U , what is its reported aptazyme ON/OFF ratio?
Result string: 1.7

Query string: Report aptazyme ON/OFF ratio for U7C U8C G9U U10A U11A C12U please.
Result string: 1.28

Query string: Quick check: aptazyme ON/OFF ratio of U7G U8C G9C C12A ?
Result string: 1.12

Query string: Name the recorded aptazyme ON/OFF ratio for U7C U8A C12U C13U .
Result string: 1.32

Query string: Give the measured aptazyme ON/OFF ratio of U7C U10C C12U C13U .
Result string: 1.36

Query string: I would be grateful if you could share the reported aptazyme ON/OFF ratio for U7G U8C G9U U10A U11G C12U C13U .
Result string: 1.16

Query string: Please report the recorded aptazyme ON/OFF ratio for U7C U8G G9A U10A C13U .
Result string: 1.15

Query string: Could you tell me which aptazyme ON/OFF ratio is on file for U7G U8G G9A U10C C12U ?
Result string: 1.59

Query string: Which aptazyme ON/OFF ratio reading was recorded for the variant U7C U8G U11C ?
Result string: 3.13

Query string: Quick one: aptazyme ON/OFF ratio of U8A U10C U11C C12A C13U ?
Result string: 1.07

Query string: Report aptazyme ON/OFF ratio for U8A G9U U11A C13G please.
Result string: 1.13

Query string: Look at this variant and give its reported aptazyme ON/OFF ratio. U8C G9C U10C C12A
Result string: 1.06

Query string: Suppose we examine the variant U7C U8C U10A U11C C13A ; what aptazyme ON/OFF ratio value has been reported?
Result string: 1.07

Query string: # get_value(readout='aptazyme ON/OFF ratio', item= U7G U8A U10G U11A C12U C13G )
Result string: 1.37

Query string: Give the measured aptazyme ON/OFF ratio of U7G U8C U10A U11A C12A C13G .
Result string: 1.14

Query string: Entry G9C U11A C12A C13U : reported aptazyme ON/OFF ratio = ?
Result string: 1.3

Query string: Any idea what its aptazyme ON/OFF ratio is? The variant is U7A U8A G9A U10C U11A C12G C13U
Result string: 1.1

Query string: Which aptazyme ON/OFF ratio value is on record for U7A U8G G9U U11A C12G C13A ?
Result string: 1.11

Query string: Reported aptazyme ON/OFF ratio, variant U7A G9U U11A C12G C13U : ____
Result string: 1.25

Query string: Would you mind telling me what aptazyme ON/OFF ratio value was observed for U7C G9U U10C U11C C12A C13G ?
Result string: 1.08

Query string: I am curious: what aptazyme ON/OFF ratio value has been reported for U7G U8C U10A U11A C12A ?
Result string: 1.05

Query string: Which measured aptazyme ON/OFF ratio value corresponds to U7C U8C G9A U10G U11C C12U C13G ?
Result string: 1.18
